Test system: Mast/stem cell growth factor receptor Kit (Homo sapiens), P10721 [D816V]
Sequence (P10721 whole entry D816V): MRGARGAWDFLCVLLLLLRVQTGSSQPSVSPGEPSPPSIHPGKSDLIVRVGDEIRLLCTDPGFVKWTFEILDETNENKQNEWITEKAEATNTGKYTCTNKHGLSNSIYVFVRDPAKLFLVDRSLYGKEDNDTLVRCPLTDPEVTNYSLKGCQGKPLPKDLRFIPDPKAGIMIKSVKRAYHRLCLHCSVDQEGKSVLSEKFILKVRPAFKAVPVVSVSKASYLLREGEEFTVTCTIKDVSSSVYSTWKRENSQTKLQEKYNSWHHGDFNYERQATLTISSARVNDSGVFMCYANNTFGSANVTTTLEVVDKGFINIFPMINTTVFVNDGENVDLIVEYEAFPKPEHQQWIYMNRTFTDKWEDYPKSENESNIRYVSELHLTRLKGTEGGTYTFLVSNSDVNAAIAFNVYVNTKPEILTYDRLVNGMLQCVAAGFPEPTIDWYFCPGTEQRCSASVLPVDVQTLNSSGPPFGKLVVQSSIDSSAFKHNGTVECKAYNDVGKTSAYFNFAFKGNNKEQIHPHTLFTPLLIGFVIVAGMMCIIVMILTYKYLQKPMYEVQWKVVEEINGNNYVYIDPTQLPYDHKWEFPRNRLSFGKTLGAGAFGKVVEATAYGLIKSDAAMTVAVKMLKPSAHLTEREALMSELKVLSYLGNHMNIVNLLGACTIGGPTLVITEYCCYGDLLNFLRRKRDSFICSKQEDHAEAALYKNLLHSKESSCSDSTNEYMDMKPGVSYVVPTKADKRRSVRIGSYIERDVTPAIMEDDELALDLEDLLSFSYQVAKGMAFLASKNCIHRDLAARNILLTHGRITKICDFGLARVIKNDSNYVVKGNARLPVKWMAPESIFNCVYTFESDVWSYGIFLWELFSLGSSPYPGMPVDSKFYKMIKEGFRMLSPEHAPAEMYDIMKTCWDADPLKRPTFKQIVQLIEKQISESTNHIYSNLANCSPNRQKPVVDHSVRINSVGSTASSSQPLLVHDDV
Details: at 0.1 µM
Documented inhibition across a set of molecules
Give the quantity in %, number only.

Prompt line: Record request: inhibition value, item COc1cc2ncn(-c3cc(OCc4ccccc4S(C)(=O)=O)c(C#N)s3)c2cc1OC
Response line: 2.49

Prompt line: Record request: inhibition value, item NS(=O)(=O)c1ccc(NC=C2C(=O)Nc3ccc4ncsc4c32)cc1
Response line: 8.42

Prompt line: Record request: inhibition value, item CC(C)c1ccc(Nc2nccc(-c3cnn4ncccc34)n2)cc1
Response line: 2.6

---

Target: Serine/threonine-protein kinase Chk2 (Homo sapiens) (UniProt O96017);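 further: reported value is the mean inhibition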
Sequence (O96017 whole entry): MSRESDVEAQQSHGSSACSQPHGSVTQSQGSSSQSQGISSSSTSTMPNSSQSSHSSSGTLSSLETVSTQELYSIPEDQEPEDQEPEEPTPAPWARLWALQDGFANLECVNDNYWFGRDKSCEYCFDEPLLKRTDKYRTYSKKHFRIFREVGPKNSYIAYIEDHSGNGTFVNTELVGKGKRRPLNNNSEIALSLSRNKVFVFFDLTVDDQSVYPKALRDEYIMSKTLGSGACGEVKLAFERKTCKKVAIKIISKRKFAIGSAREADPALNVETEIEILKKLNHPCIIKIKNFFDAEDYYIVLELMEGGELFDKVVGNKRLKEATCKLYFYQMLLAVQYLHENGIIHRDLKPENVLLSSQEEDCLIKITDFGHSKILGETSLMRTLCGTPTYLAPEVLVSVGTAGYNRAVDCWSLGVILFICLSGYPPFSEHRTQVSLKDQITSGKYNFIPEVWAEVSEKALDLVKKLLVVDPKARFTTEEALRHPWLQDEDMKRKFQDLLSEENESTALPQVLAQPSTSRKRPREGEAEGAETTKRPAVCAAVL
Settings: at 1 µM
Binary classification by inhibition, with 5% as an inclusive lower bound for 1; all other cases are 0.

Prompt line: Test whether the molecule c1ccc(Nc2ncc(-c3ccccc3)o2)cc1 records inhibition of 5% or higher.
Response line: 0

Prompt line: Test whether the molecule COC(=O)Nc1nc2cc(Oc3ccc(NC(=O)Nc4cccc(Br)c4)cc3)ccc2[nH]1 records inhibition of 5% or higher.
Response line: 0

Prompt line: Test whether the molecule COc1ccc2ncnc(Nc3ccc(OCc4ccccc4)cc3)c2c1 records inhibition of 5% or higher.
Response line: 1

Prompt line: Test whether the molecule CCn1c(-c2nonc2N)nc2ccc(F)cc21 records inhibition of 5% or higher.
Response line: 0

Prompt line: Test whether the molecule O=S(=O)(CCOCc1ccc(-c2ccc3ncnc(Nc4ccc(OCc5cccc(F)c5)c(Cl)c4)c3c2)o1)c1ccccc1 records inhibition of 5% or higher.
Response line: 0

---

Target: Serine/threonine-protein kinase Nek9 (Homo sapiens);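 further: each value is a mean percent inhibition of NEK9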
Settings: at 1 µM
quantity.name: inhibition (%)
Give the quantity in %, number only.

Look over these answered cases.
>>> measured_result("Nc1nccc(-c2c(-c3ccc(F)cc3)ncn2CCCN2CCOCC2)n1")
15.2
>>> measured_result("CCOc1nccc2c1nc(-c1nonc1N)n2CC")
11.4
>>> measured_result("CCS(=O)(=O)c1ccc(OC)c(Nc2nccc(N(C)c3ccc4c(C)n[nH]c4c3)n2)c1")
6.15
>>> measured_result("CN1CCN(C(=O)c2ccc(NC(=O)Nc3ccc(N(C)c4ccnc(Nc5ccc(CS(C)(=O)=O)cc5)n4)cc3)cc2)CC1")
30.1

Here is another molecule to look at.
Prompt line: Record request: inhibition value, item [O-][S+]1CCN(Cc2ccc(-c3ccc4ncnc(Nc5ccc(OCc6ccccc6)c(Cl)c5)c4c3)o2)CC1
Response line: 3.24

---

Biological target: Proto-oncogene tyrosine-protein kinase receptor Ret (Homo sapiens) (UniProt P07949);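 further: reported figure is the mean of RET inhibition measurements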
Sequence (P07949 whole entry): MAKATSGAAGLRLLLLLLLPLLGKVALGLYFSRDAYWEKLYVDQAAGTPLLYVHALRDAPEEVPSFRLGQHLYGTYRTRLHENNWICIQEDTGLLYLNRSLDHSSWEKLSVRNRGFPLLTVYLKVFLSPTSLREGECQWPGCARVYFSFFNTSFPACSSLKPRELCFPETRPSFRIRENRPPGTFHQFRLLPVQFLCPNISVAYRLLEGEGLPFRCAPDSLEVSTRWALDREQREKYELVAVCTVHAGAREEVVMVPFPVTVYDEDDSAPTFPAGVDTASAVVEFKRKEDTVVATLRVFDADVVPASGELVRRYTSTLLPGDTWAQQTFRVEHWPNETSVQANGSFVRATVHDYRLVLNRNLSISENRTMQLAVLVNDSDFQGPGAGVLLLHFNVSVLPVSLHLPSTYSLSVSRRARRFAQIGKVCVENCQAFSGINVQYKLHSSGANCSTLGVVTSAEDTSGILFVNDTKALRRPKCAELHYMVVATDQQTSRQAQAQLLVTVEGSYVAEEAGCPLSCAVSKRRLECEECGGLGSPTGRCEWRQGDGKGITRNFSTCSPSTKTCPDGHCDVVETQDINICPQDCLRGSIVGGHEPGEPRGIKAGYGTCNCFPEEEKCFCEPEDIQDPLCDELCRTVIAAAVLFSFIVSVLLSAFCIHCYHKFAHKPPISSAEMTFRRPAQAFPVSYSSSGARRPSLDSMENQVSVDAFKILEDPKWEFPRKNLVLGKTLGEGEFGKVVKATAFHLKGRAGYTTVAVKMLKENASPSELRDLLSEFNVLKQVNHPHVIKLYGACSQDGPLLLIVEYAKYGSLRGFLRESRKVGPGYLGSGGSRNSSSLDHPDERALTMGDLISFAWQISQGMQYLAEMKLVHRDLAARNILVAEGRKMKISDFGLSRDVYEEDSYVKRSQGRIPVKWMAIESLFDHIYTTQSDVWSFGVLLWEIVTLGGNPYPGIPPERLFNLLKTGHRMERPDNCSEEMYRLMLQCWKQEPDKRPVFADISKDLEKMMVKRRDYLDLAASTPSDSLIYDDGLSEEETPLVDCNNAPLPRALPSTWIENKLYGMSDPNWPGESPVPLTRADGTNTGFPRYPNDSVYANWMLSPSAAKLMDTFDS
Settings: at 0.1 µM
Documented inhibition across a set of compounds
Give the quantity in %, number only.

>>> measured_result("COc1ccc2ncnc(Nc3ccc(OCc4ccccc4)cc3)c2c1")
3.22
>>> measured_result("Cc1ccc2c(c1)/C(=N/Nc1ccc(S(N)(=O)=O)cc1)C(=O)N2")
3.85

Here is another compound to look at.
Prompt line: Record request: inhibition value, item COc1cc2ncnc(Nc3ccc(C)c(O)c3)c2cc1OC
Response line: 83.6

---

Target: Serine/threonine-protein kinase Chk1 (Homo sapiens);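 further: mean inhibition of CHEK1, part of the GSK PKIS profiling set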
Sequence (whole entry): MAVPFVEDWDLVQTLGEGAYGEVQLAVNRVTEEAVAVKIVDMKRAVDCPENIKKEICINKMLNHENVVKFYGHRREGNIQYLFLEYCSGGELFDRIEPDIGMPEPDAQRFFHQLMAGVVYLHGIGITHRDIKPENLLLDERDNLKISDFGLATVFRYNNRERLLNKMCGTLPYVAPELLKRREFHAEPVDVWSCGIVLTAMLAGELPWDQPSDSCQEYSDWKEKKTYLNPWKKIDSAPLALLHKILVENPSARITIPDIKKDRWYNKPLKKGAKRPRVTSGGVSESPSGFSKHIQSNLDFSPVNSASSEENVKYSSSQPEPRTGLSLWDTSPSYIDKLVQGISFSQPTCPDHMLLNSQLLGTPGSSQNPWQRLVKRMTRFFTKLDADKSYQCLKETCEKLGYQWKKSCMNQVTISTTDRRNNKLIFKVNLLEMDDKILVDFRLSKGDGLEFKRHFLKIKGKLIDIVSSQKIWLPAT
Conditions: at 1 µM
quantity.name: inhibition (%)
Give the quantity in %, number only.

Prompt line: Record request: inhibition value, item NS(=O)(=O)c1ccc(-c2cc3ccncc3cc2OCc2ccccc2)cc1
Response line: 0.12

Prompt line: Record request: inhibition value, item COc1cccc(-n2ncc3c(N/N=C/c4ccc(S(C)(=O)=O)cc4)ncnc32)c1
Response line: -1.03

Prompt line: Record request: inhibition value, item Cc1cc(O)cc(C)c1/C=C/c1cncc(C(=O)N(C)C)c1
Response line: 2.96

---

Documented inhibition across a set of compounds
Biological target: Serine/threonine-protein kinase PLK1 (Homo sapiens) (UniProt P53350);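 further: reported value is a mean PLK1 inhibition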
Sequence (P53350 whole entry): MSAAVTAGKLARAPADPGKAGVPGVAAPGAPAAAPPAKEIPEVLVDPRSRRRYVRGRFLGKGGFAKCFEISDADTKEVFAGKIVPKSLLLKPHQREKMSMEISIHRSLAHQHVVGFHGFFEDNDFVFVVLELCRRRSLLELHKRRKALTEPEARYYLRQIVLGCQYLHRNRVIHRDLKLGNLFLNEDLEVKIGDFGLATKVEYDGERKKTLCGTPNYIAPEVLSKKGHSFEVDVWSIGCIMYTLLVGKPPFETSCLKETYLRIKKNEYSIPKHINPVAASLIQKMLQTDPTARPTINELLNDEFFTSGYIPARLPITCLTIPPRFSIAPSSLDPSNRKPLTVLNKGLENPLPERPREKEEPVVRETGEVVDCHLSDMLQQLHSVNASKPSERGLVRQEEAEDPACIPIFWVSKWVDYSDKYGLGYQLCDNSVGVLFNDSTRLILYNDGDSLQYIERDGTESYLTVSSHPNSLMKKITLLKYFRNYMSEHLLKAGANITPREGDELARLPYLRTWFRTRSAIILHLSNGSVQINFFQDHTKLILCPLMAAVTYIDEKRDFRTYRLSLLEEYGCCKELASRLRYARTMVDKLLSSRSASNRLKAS
Details: at 1 µM
Give the quantity in %, number only.

Look over these answered cases.
>>> measured_result("O=C1Nc2ccccc2/C1=C/Nc1ccc2[nH]c(=O)[nH]c2c1")
3.82
>>> measured_result("Cc1ccc2c(-c3ccnc(Nc4ccc5c(c4)OCCO5)n3)c(-c3ccc(C(F)(F)F)cc3)nn2n1")
2.75
>>> measured_result("[O-][S+]1CCN(Cc2ccc(-c3ccc4ncnc(Nc5ccc(OCc6ccccc6)c(Cl)c5)c4c3)o2)CC1")
2.79
>>> measured_result("CC(C)c1ccc(Nc2nccc(-c3cnn4ncccc34)n2)cc1")
4.81
>>> measured_result("CCOc1nccc2c1nc(-c1nonc1N)n2CC")
5.25
>>> measured_result("N#Cc1c(NC(=O)c2ccccc2F)sc2c1CCCC2")
0.29

Prompt line: Record request: inhibition value, item CN(C)C(=O)O[C@H]1CN[C@H](C#Cc2cc3ncnc(Nc4ccc(OCc5cccc(F)c5)c(Cl)c4)c3s2)C1
Response line: 2.92

Prompt line: Record request: inhibition value, item Cc1ccc2c(c1)/C(=N/Nc1ccc(S(N)(=O)=O)cc1)C(=O)N2
Response line: 1.12

---

Documented inhibition across a set of molecules
Molecular target: Fibroblast growth factor receptor 3 (Homo sapiens);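 further: values reported are mean percent inhibition of FGFR3 activity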
Details: at 1 µM
Give the quantity in %, number only.

Look over these answered cases.
>>> measured_result("NS(=O)(=O)c1cccc(Nc2cc(-c3ccc(F)cc3)n[nH]2)c1")
8.88
>>> measured_result("COc1cc(Nc2nccc(-c3cnn4ncccc34)n2)cc(OC)c1")
20.5
>>> measured_result("Cc1ccc(Nc2ccnc(Nc3cccc(C(N)=O)c3)n2)cc1O")
18.4

Prompt line: Record request: inhibition value, item COc1cc2ncnc(Nc3ccc4c(cnn4Cc4ccccc4)c3)c2cc1OC
Response line: 3.13

Prompt line: Record request: inhibition value, item NS(=O)(=O)c1cccc(-c2cc3ccncc3cc2OCc2ccccc2)c1
Response line: 13

Prompt line: Record request: inhibition value, item C[C@@H](Oc1cc(-n2cnc3ccc(OC[C@@H](O)CO)cc32)sc1C(N)=O)c1ccccc1Cl
Response line: 6.57

Prompt line: Record request: inhibition value, item Nc1nccc(-c2c(-c3ccc(F)cc3)nn3cc(C(F)(F)F)ccc23)n1
Response line: 1.74

Prompt line: Record request: inhibition value, item COC(=O)c1ccc2c(c1)C(=Cc1cc(Br)c(O)c(Br)c1)C(=O)N2
Response line: 5.51

---

Molecular target: Calcium/calmodulin-dependent protein kinase type 1D (Homo sapiens) (UniProt Q8IU85);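 further: reported figure is the mean percent inhibition of CAMK1D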
Sequence (Q8IU85 whole entry, looked up): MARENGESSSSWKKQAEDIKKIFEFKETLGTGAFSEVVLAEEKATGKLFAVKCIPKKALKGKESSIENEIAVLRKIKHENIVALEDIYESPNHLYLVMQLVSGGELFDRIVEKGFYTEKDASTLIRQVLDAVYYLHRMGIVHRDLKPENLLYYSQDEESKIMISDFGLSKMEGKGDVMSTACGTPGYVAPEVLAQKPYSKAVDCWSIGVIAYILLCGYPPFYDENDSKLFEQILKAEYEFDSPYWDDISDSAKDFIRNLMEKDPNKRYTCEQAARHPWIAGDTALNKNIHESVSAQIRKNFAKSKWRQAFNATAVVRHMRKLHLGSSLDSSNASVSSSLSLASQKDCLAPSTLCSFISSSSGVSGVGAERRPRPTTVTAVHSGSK
Settings: at 1 µM
Documented inhibition across a set of compounds

Look over these answered cases.
>>> measured_result("COC(=O)c1cncc(/C=C/c2c(C)cc(O)cc2C)c1")
"-0.32%"
>>> measured_result("NC(=O)c1cccc(Nc2nccc(Nc3cccc(F)c3)n2)c1")
"3.1%"
>>> measured_result("Cc1cc(Cl)cc2c1NC(=O)C2=NNc1ccc(S(N)(=O)=O)cc1")
"-0.6%"
>>> measured_result("O=C1Nc2ccc(-c3cccnc3)cc2C1=Cc1cc(Br)c(O)c(Br)c1")
"4.01%"
>>> measured_result("CCS(=O)(=O)c1ccc(OC)c(Nc2ncc(-c3cccc(OC)c3)o2)c1")
"1.97%"
>>> measured_result("COc1cccc(-n2nc(C)c3c(N/N=C(\\C)c4ccncc4)ncnc32)c1")
"2.19%"
>>> measured_result("NS(=O)(=O)c1cccc(-c2cc3ccncc3cc2OCc2ccccc2)c1")
"0.96%"
>>> measured_result("COc1cc(Nc2nccc(-c3cnn4ncccc34)n2)cc(OC)c1")
"6.41%"

Prompt line: Reported inhibition for Calcium/calmodulin-dependent protein kinase type 1D (Homo sapiens) (UniProt Q8IU85), given CCn1c(-c2nonc2N)nc2ccc(F)cc21 ?
Response line: -0.34%

Prompt line: Reported inhibition for Calcium/calmodulin-dependent protein kinase type 1D (Homo sapiens) (UniProt Q8IU85), given C[C@@H](Oc1cc(-n2cnc3ccc(OCC4CCN(C)CC4)cc32)sc1C(N)=O)c1ccccc1C(F)(F)F ?
Response line: 4.15%

---

Target: Tyrosine-protein kinase receptor UFO (Homo sapiens)
Settings: at 1 µM
Description: GSK_PKIS: AXL mean inhibition at 1 uM [Nanosyn]
Documented inhibition across a set of compounds
Give the quantity in %, number only.

Look over these answered cases.
>>> measured_result("CN(C)CCCn1c(-c2nonc2N)nc2cnccc21")
-8.31
>>> measured_result("Cc1cc(Cl)cc2c1NC(=O)C2=NNc1ccc(S(N)(=O)=O)cc1")
-2.47
>>> measured_result("CCn1c(-c2nonc2N)nc2ccc(F)cc21")
-5.29
>>> measured_result("CCS(=O)(=O)c1ccc(OC)c(Nc2nccc(N(C)c3ccc4c(C)n[nH]c4c3)n2)c1")
-3.9

Prompt line: Reported inhibition for Tyrosine-protein kinase receptor UFO (Homo sapiens), given c1ccc(Nc2ncc(-c3ccccc3)o2)cc1 ?
Response line: -3.74

Prompt line: Reported inhibition for Tyrosine-protein kinase receptor UFO (Homo sapiens), given COc1ccc2ncnc(Nc3ccc(OCc4ccccc4)cc3)c2c1 ?
Response line: -5.04

Prompt line: Reported inhibition for Tyrosine-protein kinase receptor UFO (Homo sapiens), given Cc1ccc2c(-c3ccnc(Nc4cccc(C(F)(F)F)c4)n3)c(-c3ccccc3)nn2n1 ?
Response line: -3.9

Prompt line: Reported inhibition for Tyrosine-protein kinase receptor UFO (Homo sapiens), given NS(=O)(=O)c1ccc(-c2cc3ccncc3cc2OCc2ccccc2)cc1 ?
Response line: -1.13

Prompt line: Reported inhibition for Tyrosine-protein kinase receptor UFO (Homo sapiens), given NC(=O)c1sc(-n2cnc3ccccc32)cc1OCc1ccccc1Br ?
Response line: -4.14
